Biological target: T1, human CD33 on cells (MOLM-13, Kasumi-1, OCI-AML-3, Kasumi-3) (human, UniProt P20138 18-364)
T1 construct: whole, on cells; also called CD33 expressing cells; CD33+ cell lines
T1 sequence (P20138 18-364): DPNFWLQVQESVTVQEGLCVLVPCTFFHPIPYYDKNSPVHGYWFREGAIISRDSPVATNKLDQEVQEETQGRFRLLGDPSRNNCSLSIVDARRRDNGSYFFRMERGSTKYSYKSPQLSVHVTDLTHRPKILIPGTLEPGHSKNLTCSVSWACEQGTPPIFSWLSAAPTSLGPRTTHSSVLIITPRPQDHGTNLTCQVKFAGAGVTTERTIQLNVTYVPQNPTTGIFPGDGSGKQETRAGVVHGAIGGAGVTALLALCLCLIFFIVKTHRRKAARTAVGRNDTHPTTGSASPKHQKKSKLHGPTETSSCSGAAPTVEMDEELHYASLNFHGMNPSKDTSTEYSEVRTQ
Assay: flow cytometry on MOLM-13 cells, 4 °C, serial dilutions of the antibody
In this section, each of the binders is paired with its reported pEC50.
Scale: negative log10 of molar concentration, which is what pEC50 denotes.

Worked examples, 3 binders total:
1. C33B836.006 (antibody, V domains shown, also called sC33B836.006) VH: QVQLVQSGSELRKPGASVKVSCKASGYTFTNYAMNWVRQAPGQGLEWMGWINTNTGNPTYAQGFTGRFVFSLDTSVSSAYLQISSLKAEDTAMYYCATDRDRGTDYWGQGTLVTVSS VL: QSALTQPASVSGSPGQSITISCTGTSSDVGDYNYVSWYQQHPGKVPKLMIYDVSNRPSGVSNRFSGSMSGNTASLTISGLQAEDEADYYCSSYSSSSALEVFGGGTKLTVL | 9.30
2. C33B1474 (antibody, V domains shown) VH: QVQLVESGGGLVQPGGSLRLSCAASGFTFSSFGMSWVRQAPGKGLEWVANIKRDGSEKYYVDSVKGRFTISRDNAKNSLFLQMSSLRAEDTAVYYCVRDYGYFDFWGQGTLVTVSS VL: DIQMTQSPSSLSASVGDRVTITCQASQAISNYLNWYQQKPGKAPKLLIYDASNLETGVPSRFSGSGSGTDFTFTISSLQPEDFSTYFCQHYDNLPYTFGQGTKLEIK | 7.11
3. C33B1477 (antibody, V domains shown, also called sCD33B1477) VH: EVQLVESGGGLVQPGGSLKVSCEASGFTFSVSAIHWVRQASGKGLEWIGRIRSKGNSYATAYAASVKGRFTISRDDSKNTAYLQMDSLKTEDTAVYYCTRHNDKWNYYGLDVWGQGTTVTVSS VL: DIVMTQSPLSLPVTPGEPASISCKSSQSLLFSNGYKFLDWYLQRPGQSPQLLIYLGSYRASGVPDRFSGSGSGTDFTLKISRVEAEDVGLYYCMQALQTPPTFGGGTKVEIK | 7.25

// moving on: another record for pEC50
Challenge: GET /values?readout=pEC50&item= C33B806.006 (antibody, V domains shown) VH: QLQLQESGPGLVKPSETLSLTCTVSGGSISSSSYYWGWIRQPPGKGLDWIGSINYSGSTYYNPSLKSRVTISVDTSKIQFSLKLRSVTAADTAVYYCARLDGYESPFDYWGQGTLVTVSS VL: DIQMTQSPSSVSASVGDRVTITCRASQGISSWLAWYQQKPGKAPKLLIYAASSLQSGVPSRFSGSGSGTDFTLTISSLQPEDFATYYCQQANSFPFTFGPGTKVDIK
Response given: 7.45
